Reported melting point by item:

Some solved cases for reference:
Prompt line: Give melting point for the following compound: CNC(=O)Nc1ccc2c(c1)C(C)(N)c1c-2[nH]c(=O)c2nccn12 (stereo not drawn)
Response line: 200 °C

Prompt line: Give melting point for the following compound: CC(C)(C)OC(=O)N1CCC(NC(=O)c2ccc(-n3cc4ccccc4n3)cc2)CC1
Response line: 202 to 204 °C

Prompt line: Give melting point for the following compound: CC(C)(C)OC(=O)N1C[C@H](C#N)C[C@H]1C(=O)OCc1ccccc1
Response line: 97 to 99 °C

Prompt line: Give melting point for the following compound: COC(=O)C1=C(C)N(Cc2ccccc2[N+](=O)[O-])C(C)=C(C(=O)OC)C1c1cccc2nonc12
Response line: 192 °C

Prompt line: Give melting point for the following compound: OC1(OCc2ccccc2)C(Cl)=C(Cl)C=CC1OCc1ccccc1 (stereo not drawn)
Response line: 74 to 75 °C

Prompt line: Give melting point for the following compound: CCCNC(=O)CCc1ccc2ccn(Cc3ccc(C(=O)NS(=O)(=O)c4ccccc4C)cc3OC)c2c1
Response line: 110 °C

Continuing:
Prompt line: Give melting point for the following compound: C=CCC(C#N)(C#N)Cc1ccc([N+](=O)[O-])cc1
Response line: 94.2 °C

Prompt line: Give melting point for the following compound: NC(=O)c1cc(Cl)ccc1SSc1ccc(Cl)cc1C(N)=O
Response line: 278 to 282 °C

Prompt line: Give melting point for the following compound: Nc1nnc(N2CCN(CCOc3ccc(Br)cc3)CC2)[nH]1
Response line: 166 to 167 °C

Prompt line: Give melting point for the following compound: O=C(NCC12CC3CC(CC(C3)C1)C2)c1cc(OCCO)ncc1Cl
Response line: 154 to 155 °C

Prompt line: Give melting point for the following compound: O=P1(c2cccc(F)c2)c2ccccc2CN1c1ccccc1 (stereo not drawn)
Response line: 209 to 210 °C

Prompt line: Give melting point for the following compound: CC(C)N1CC(CCN2CCN(c3ccccc3)CC2)OC1=O (stereo not drawn)
Response line: 74 to 75 °C

Prompt line: Give melting point for the following compound: CCCn1nnc(NC(=O)C(c2ccccc2)c2ccccc2)n1
Response line: 124 to 125 °C

###

metric-name: melting point

Prompt line: Give melting point for the following compound: CCCc1c(OCC(O)CS(=O)(=O)c2ccc(CC(=O)OC)c(Cl)c2Cl)ccc(C(C)=O)c1O (configuration not stated)
Response line: 122 to 125 °C

Prompt line: Give melting point for the following compound: CC(NC(=O)OCc1ccccc1)P(C)(=O)OCc1ccccc1 (configuration not stated)
Response line: 108 to 110 °C

Prompt line: Give melting point for the following compound: CCCOc1cc(N(CC)CC)ccc1-c1nc2cc3c(cc2[nH]1)C(C)(C)CC(=O)N3
Response line: 147 to 148 °C

Prompt line: Give melting point for the following compound: CCCCN1C(=O)CN2C(=O)CN(c3ccc(C(C)C)cc3Br)c3nc(C)nc1c32
Response line: 207 to 208 °C

Prompt line: Give melting point for the following compound: C=C(c1ccc(Cl)cc1)c1ccc(NC(=O)c2cc(I)cc(I)c2O)cc1Cl
Response line: 171 to 175 °C

Prompt line: Give melting point for the following compound: CCOC(=O)c1ccc(Nc2ncccc2NS(=O)(=O)c2ccc(OC)cc2)cc1
Response line: 172 to 173 °C

// switching to the query compound
Prompt line: Give melting point for the following compound: CC(C)(C)c1ccc(-c2csc(-c3cccc(C(=O)O)c3)n2)cc1
Response line: 250 to 251 °C

###

Reported melting point by item:

Some solved cases for reference:
Prompt line: Give melting point for the following compound: CC(=O)Nc1ccc(C=O)c(F)c1F
Response line: 154 °C

Prompt line: Give melting point for the following compound: CCOC(=O)c1c(N2CCN(C(=O)c3ccco3)CC2)c2cc(F)cnc2n(CC(=O)c2ccccc2)c1=O
Response line: 134 °C

Prompt line: Give melting point for the following compound: CC1(C)CSc2sc(S(N)(=O)=O)cc2C1O (centres undefined)
Response line: 158 to 159 °C

Prompt line: Give melting point for the following compound: c1ccc(COc2cc(OCc3ccccc3)cc(OCc3ccccc3)c2)cc1
Response line: 91.5 to 91.9 °C

Continuing:
Prompt line: Give melting point for the following compound: CCOC(=O)c1c2c(nc3ccccc13)CCN(C(=O)OCC)CC2
Response line: 94 °C

Prompt line: Give melting point for the following compound: O=C1CCC2=C1C(c1ccc3nonc3c1)C1=C(CCC1=O)N2
Response line: 272 to 273 °C

Prompt line: Give melting point for the following compound: Clc1ccc(OC(C(OCc2ccc(Cl)cc2Cl)c2ccc(Cl)cc2Cl)n2cncn2)cc1 (centres undefined)
Response line: 132 to 135 °C

Prompt line: Give melting point for the following compound: O=S1(=O)c2cccc3cccc(c23)N1CCCN1CCC(n2c(O)nc3ccccc32)CC1
Response line: 253 °C

Prompt line: Give melting point for the following compound: CC(C)S(=O)(=O)NC[C@@H](C)c1ccc(-c2ccc3c(c2)CC(=O)N3)cc1
Response line: 170 to 171 °C

Prompt line: Give melting point for the following compound: CC1(C)CCc2[nH]cc(C(=O)O)c2C1=O
Response line: 225 to 228 °C

Prompt line: Give melting point for the following compound: CCOC(=O)c1ncn2c1cnc1ccccc12
Response line: 195 to 196 °C

###

Reported melting point by item:

Prompt line: Give melting point for the following compound: CCOC(=O)Cn1c(=O)n(Cc2ccc(Cl)c(Cl)c2)c(=O)c2c(C)c(Cl)sc21
Response line: 141 to 145 °C

Continuing:
Prompt line: Give melting point for the following compound: CC(C)C1C(=O)N(Cc2ccccc2)S(=O)(=O)N1C (stereo not drawn)
Response line: 52.5 to 54 °C

Prompt line: Give melting point for the following compound: CCOC(=O)c1c(/C=C/c2nccn2C)nc2cc(OC)c(OC)cc2c1-c1ccc(OC)c(OC)c1
Response line: 206 to 208 °C

Prompt line: Give melting point for the following compound: Clc1cccc(Nc2nnc(-c3ccc4nonc4c3)s2)c1Cl
Response line: 229 to 231 °C

###

metric-name: melting point

Some solved cases for reference:
Prompt line: Give melting point for the following compound: CCc1nnc(-c2ccc(-c3ccccc3)nc2)n1-c1cccc(C(N)=O)c1C
Response line: 162 to 163 °C

Prompt line: Give melting point for the following compound: COc1ccc2c(Cc3c(Cl)cncc3Cl)nnc(-n3ccnc3)c2c1
Response line: > 250 °C

Prompt line: Give melting point for the following compound: C=C(C)CCOc1ccc([N+](=O)[O-])cc1Cl
Response line: 38 to 39 °C

Prompt line: Give melting point for the following compound: COc1ccc(Oc2ccc([N+](=O)[O-])cc2)c(Cl)c1Cl
Response line: 165 to 166 °C

Prompt line: Give melting point for the following compound: NC(=O)c1cc(-n2c(-c3ccccc3)cc3c2CCc2ccccc2-3)ccc1O
Response line: 213 to 215 °C

Prompt line: Give melting point for the following compound: CCCCc1cc2cc(NS(C)(=O)=O)ccn2c1C(=O)c1ccc(OCCCN(CCCC)CCCC)cc1
Response line: 87 to 88 °C

Prompt line: Give melting point for the following compound: Cc1cc(C)c2c(c1)cc(C(=O)O)n2CC(=O)OC(C)(C)C
Response line: 210 °C

Prompt line: Give melting point for the following compound: CC1(C(F)(F)F)NC(c2ncccc2C(=O)O)=NC1=O (centres undefined)
Response line: 180 to 184 °C

Prompt line: Give melting point for the following compound: O=C(CC(=O)C1CC1)c1ccccn1
Response line: 77 to 78 °C

Prompt line: Give melting point for the following compound: OC(CN1CCCCC1)c1cc(C(F)(F)F)nc2c(C(F)(F)F)cccc12 (centres undefined)
Response line: 130 °C

Continuing:
Prompt line: Give melting point for the following compound: COC(=O)/C=C/[C@@H](c1ccc2ccccc2c1)c1cccc2c1ccn2C(=O)OC(C)(C)C
Response line: 75 to 78 °C

Prompt line: Give melting point for the following compound: CC(C)C1Sc2ccccc2NC(=O)C1N (centres undefined)
Response line: 180 to 183 °C

Prompt line: Give melting point for the following compound: O=C1c2ccccc2C(=O)N1C(Cc1ccccc1)CP(=O)(O)O (centres undefined)
Response line: 127 to 130 °C

Prompt line: Give melting point for the following compound: O=S(O)c1ccc2c(c1)CCCC2
Response line: 82 to 85 °C

###

Reported melting point by item:

Some solved cases for reference:
Prompt line: Give melting point for the following molecule: COc1cc2c(cc1OC)CN(CCCCc1ccc(NC(=O)c3nc4ccccc4nc3C)cc1)CC2
Response line: 146 °C

Prompt line: Give melting point for the following molecule: O=C(O)C1Cc2ccccc2N1S(=O)(=O)c1ccc(-c2cc(C(F)(F)F)ccc2Cl)cc1 (configuration not stated)
Response line: 79 to 83 °C

Prompt line: Give melting point for the following molecule: CCCCCCC(=N)NC(=S)Nc1cc(C(F)(F)F)ccc1Cl
Response line: 88 to 90 °C

Continuing:
Prompt line: Give melting point for the following molecule: COCC(C)Nc1cc2c(=O)n(NS(C)(=O)=O)c(=O)[nH]c2cc1[N+](=O)[O-] (configuration not stated)
Response line: 103 to 111 °C

Prompt line: Give melting point for the following molecule: O=C(O)C(Cc1ccccc1)Oc1ccc2cc(-c3cnc(-c4cn(Cc5ccccc5)c5ccccc45)o3)ccc2c1 (configuration not stated)
Response line: 125 to 127 °C

Prompt line: Give melting point for the following molecule: CC(C)(C)OC(=O)NN(C(=O)OC(C)(C)C)C1(c2cccnc2)CCCCC1=O (configuration not stated)
Response line: 123 to 125 °C

Prompt line: Give melting point for the following molecule: O=C1CC(c2cccc(-c3csc(C(=O)NCCO)n3)c2)=Nc2ccc(-n3cccc3)cc2N1
Response line: 236 to 238 °C

Prompt line: Give melting point for the following molecule: O=Cc1ccc(O)c(OCc2ccccc2)c1Cl
Response line: 149 to 150 °C
